Quick reference: Enzyme activity endpoint: scIgG of the listed items.
Assayed System: pooled human IgG (human IgG1,2,3 and 4)
Give the value, in units of ng/µL, as a plain number.

# Protein, Readout Name, Readout Number
rows = [
    ("PRT-669 (protein) MQITSVWTKGVTPPTPEQFTNNNEDVFHAPYLANQGWYDITKTFNGKDNLLCGAATAGNMLHWWFDQNKEQIEAYLKKHPEKQKIIFNNQEMFDLKKAIDTKDSQTNSALFNYFRDKAFPNLSARQLGVMPDLVLDMFINGYYLNVGKTQSTDVNRPYQTKDKRGGIFDAVFTRGDQTKLLTARHDLKNKGLNEISDLIKQELTEGKALALSHTYANVRINHVINLWGADFNAEGNLIAIYVTDSDSNASIGMKKYFVGVNSAGKVAISAKKIEGDNIGAQVLGLFTLSSGQDIWQKLSLEHHHHHH", "Enzyme activity endpoint: scIgG", 0),
]

Kindly consider the entry below.
q: Please report the recorded Enzyme activity endpoint: scIgG for PRT-604 (protein) MQITSVWTKGVTPLTPEQFRYNNEDVIHAPYLAHQGWYDITKAFDGKDNLLCGAATAGNMLHWWFDQNKTEIEAYLSKHPEKQKIIFNNQELFDLKAAIDTKDSQTNSQLFNYFRDKAFPNLSARQLGVMPDLVLDMFINGYYLNVFKTQSTDVNRPYQDKDKRGGIFDDVFGKGDQTTLLTARHDLKNKGLNDISTIIKQELTEGRALALSHTYANVSISHVINLWGADFNAEGNLEAIYVTDSDANASIGMKKYFVGINAHGHVAISAKKIEGENIGAQVLGLFTLSSGKDIWQKLSLEHHHHHH .
a: 964
